Target: BACE1 enzyme (Homo sapiens, UniProt P56817)
Construct: The HEK293-9B.A1 cell line, which overexpresses the BACE1 enzyme, was derived from HEK293 cells; endogenous in cells; washed 48,000 x g membrane pellet / cell homogenate
Sequence (P56817 46-501): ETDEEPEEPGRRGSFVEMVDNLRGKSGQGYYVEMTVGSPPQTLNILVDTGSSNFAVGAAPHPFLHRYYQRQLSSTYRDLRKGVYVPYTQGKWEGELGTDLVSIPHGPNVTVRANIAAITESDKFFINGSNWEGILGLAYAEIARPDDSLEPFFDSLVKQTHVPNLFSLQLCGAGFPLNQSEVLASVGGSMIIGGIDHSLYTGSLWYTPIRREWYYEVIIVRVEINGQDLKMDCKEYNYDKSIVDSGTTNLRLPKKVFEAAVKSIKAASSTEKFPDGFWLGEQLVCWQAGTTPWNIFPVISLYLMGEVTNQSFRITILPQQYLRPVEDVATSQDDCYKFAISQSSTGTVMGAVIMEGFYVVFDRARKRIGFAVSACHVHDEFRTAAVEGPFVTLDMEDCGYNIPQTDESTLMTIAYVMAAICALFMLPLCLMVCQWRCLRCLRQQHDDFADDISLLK
Experiment: Radioligand displacement assay with a radiolabeled BACE inhibitor on HEK293-9B.A1 cell homogenate
Type: binding
Details: displacement of 1 nM tritiated radioligand, HEK293-9B.A1 homogenate, pH 5.0, 1.5 hr at 25° C.; read-out: Activity Rating (based on IC50 values)
pIC50: −log10 of the molar value.
measure: pIC50

Take a look at these entries with their results.
{"columns": ["compound", "pIC50"],
 "data": [
  ["CC[C@@H](C)[C@@]1(NC(C)=O)CCN([C@@H](CCc2ccccc2)C(=O)N[C@@H](Cc2cc(F)cc(F)c2)[C@H](O)[C@H]2C[C@H](O)CN2)C1=O [Example 15]", "> 7.00"],
  ["CCC(C)[C@@]1(NC(C)=O)CCN([C@@H](CCc2ccccc2)C(=O)N[C@@H](Cc2cc(F)cc(F)c2)[C@H](O)[C@H]2CCCCN2)C1=O (stereo in doubt) [Example 8]", "> 7.00"],
  ["CCCS(=O)(=O)[C@H]1CN[C@@H]([C@@H](O)[C@H](Cc2ccccc2)NC(=O)[C@H](CCc2ccccc2)N2CC[C@](NC(C)=O)([C@H](C)CC)C2=O)C1 [Example 22]", "> 7.00"],
  ["CCCOC1CN[C@@H]([C@@H](O)C(Cc2cc(F)cc(F)c2)NC(=O)[C@H](C)N2CC[C@H](CC(C)C)C2=O)C1 (some centres unmarked) [Example 7]", "6.00 to 7.00"]
]}

Then there is this compound:
Form field pIC50, entry CCCO[C@H]1CN[C@@H]([C@@H](O)[C@H](Cc2cc(F)cc(F)c2)NC(=O)[C@H](CCc2ccccc2)N2CC[C@](NC(C)=O)([C@@H](C)CC)C2=O)C1 (stereo in doubt) [Example 2] : > 7.00
